Target: T1, human pIgR extracellular domain (ECD) (human, UniProt P01833 19-638)
T1 construct: also called hpIgR ECD
T1 sequence (P01833 other isoform, or with tags, fused parts or gaps): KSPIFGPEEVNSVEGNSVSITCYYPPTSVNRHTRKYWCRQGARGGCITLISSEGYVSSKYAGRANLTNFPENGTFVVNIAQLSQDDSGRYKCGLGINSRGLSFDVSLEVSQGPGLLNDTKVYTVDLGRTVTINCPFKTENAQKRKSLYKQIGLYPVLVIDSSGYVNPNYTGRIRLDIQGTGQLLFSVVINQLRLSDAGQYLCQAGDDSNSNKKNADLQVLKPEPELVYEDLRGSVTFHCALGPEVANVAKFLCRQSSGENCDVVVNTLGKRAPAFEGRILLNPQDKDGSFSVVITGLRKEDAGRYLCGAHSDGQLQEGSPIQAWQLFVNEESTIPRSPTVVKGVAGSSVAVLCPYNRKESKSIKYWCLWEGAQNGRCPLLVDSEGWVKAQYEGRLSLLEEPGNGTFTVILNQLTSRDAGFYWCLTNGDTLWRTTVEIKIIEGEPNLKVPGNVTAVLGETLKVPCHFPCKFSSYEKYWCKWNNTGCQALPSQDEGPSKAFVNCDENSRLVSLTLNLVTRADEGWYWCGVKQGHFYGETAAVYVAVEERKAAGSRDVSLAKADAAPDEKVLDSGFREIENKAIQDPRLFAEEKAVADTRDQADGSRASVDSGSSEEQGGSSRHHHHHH
Assay: BLI; summary table, repeats Table 1
PARAMETER: Kd (nM)
The response must be a number in nM with no trailing unit.

Any idea what its Kd is? The binder is VHH3-linker-mono-Fc protein (Fc fusion, made in CHO cells; also called VHH3-mono-Fc; hpIgR_021) QLQLVESGGGLVQPGGSLRLSCAASGSIFSINVMGWYRQAPGKQRELVARINGGGITHYAESVKGRFTISRDNAKNTVYLQMNSLKPEDTAAYYCKADVFGSSGYVETYWGQGTQVTVSSEPKTPKPQPQPQLQPQPNPTTESKSPKSPAPELLGGPSVFLFPPKPKDTLMISRTPEVTCVVVDVSHEDPEVKFNWYVDGVEVHNAKTKPREEQYNSTYRVVSVLTVLHQDWLNGKEYKCKVSNKALPAPIEKTISKAKGQPREPQVYTKPPSREEMTKNQVSLSCLVKGFYPSDIAVEWESNGQPENNYKTTVPVLDSDGSFRLASYLTVDKSRWQQGNVFSCSVMHEALHNHYTQKSLSLSPGK
5

Origin of values: patent US20220324970A1
